Test system: Mycobacterium tuberculosis
protocol_summary: Antimycobacterial activity against Mycobacterium tuberculosis H37Rv ATCC 27294 at 6.25 ug/mL by BACTEC 460 radiometric assay
Assay type: functional
readout_name: inhibition at 6.25 µg/mL (%)

>>> reported_result("CC(O)c1cc(F)ccc1Oc1nc2ccc(NC(=O)Nc3cccc([N+](=O)[O-])c3)cc2cc1Cc1ccccc1 (stereo not given)")
98
>>> reported_result("COc1cccc(-c2ccn(CC(O)c3cc(F)ccc3Oc3nc4ccc([N+](=O)[O-])cc4cc3Cc3ccccc3)n2)c1 (stereo not given)")
7
>>> reported_result("COc1ccc(NC(=S)Nc2ccc3nc(Oc4ccc(F)cc4C(C)O)c(Cc4ccccc4)cc3c2)cc1 (stereo not given)")
27
>>> reported_result("COc1ccc(NC(=O)Nc2ccc3nc(Oc4ccc(F)cc4C(C)O)c(Cc4ccccc4)cc3c2)cc1 (stereo not given)")
25
>>> reported_result("CC(c1cc(F)ccc1Oc1nc2ccc(-n3cc(-c4ccccc4)nn3)cc2cc1Cc1ccccc1)n1ccnc1 (stereo not given)")
96
>>> reported_result("O=[N+]([O-])c1ccc2nc(Oc3ccc(F)cc3C(O)Cn3cccn3)c(Cc3ccccc3)cc2c1 (stereo not given)")
53
>>> reported_result("O=[N+]([O-])c1ccc2nc(Oc3ccc(F)cc3C(O)Cn3ccc(-c4ccc(C(F)(F)F)cc4)n3)c(Cc3ccccc3)cc2c1 (stereo not given)")
6
>>> reported_result("COc1ccccc1NC(=S)Nc1ccc2nc(Oc3ccc(F)cc3C(C)O)c(Cc3ccccc3)cc2c1 (stereo not given)")
14
>>> reported_result("COc1cccc(NC(=S)Nc2ccc3nc(Oc4ccc(F)cc4C(C)O)c(Cc4ccccc4)cc3c2)c1 (stereo not given)")
22
>>> reported_result("O=[N+]([O-])c1ccc2nc(Oc3ccc(F)cc3C(O)CN3CCOCC3)c(Cc3ccccc3)cc2c1 (stereo not given)")
29
>>> reported_result("COc1cccc(NC(=O)Nc2ccc3nc(Oc4ccc(F)cc4C(C)O)c(Cc4ccccc4)cc3c2)c1 (stereo not given)")
94
>>> reported_result("CC(c1cc(F)ccc1Oc1nc2ccc(-n3cc(-c4ccccc4)nn3)cc2cc1Cc1ccccc1)N1CCN(c2ccccn2)CC1 (stereo not given)")
29
>>> reported_result("COc1ccccc1NC(=O)Nc1ccc2nc(Oc3ccc(F)cc3C(C)O)c(Cc3ccccc3)cc2c1 (stereo not given)")
8
>>> reported_result("O=[N+]([O-])c1ccc2nc(Oc3ccc(F)cc3C(O)CN3CCNCC3)c(Cc3ccccc3)cc2c1 (stereo not given)")
20
>>> reported_result("O=[N+]([O-])c1ccc2nc(Oc3ccc(F)cc3C(O)Cn3ccc(-c4cccc(Cl)c4)n3)c(Cc3ccccc3)cc2c1 (stereo not given)")
0
>>> reported_result("CC(c1cc(F)ccc1Oc1nc2ccc(-n3cc(-c4ccccc4)nn3)cc2cc1Cc1ccccc1)N1CCCCC1 (stereo not given)")
81
>>> reported_result("CC(O)c1cc(F)ccc1Oc1nc2ccc(NC(=S)NCc3ccc(Cl)cc3)cc2cc1Cc1ccccc1 (stereo not given)")
37
>>> reported_result("COc1ccc(-c2ccn(CC(O)c3cc(F)ccc3Oc3nc4ccc([N+](=O)[O-])cc4cc3Cc3ccccc3)n2)cc1 (stereo not given)")
5
>>> reported_result("CC(c1cc(F)ccc1Oc1nc2ccc(-n3cc(-c4ccccc4)nn3)cc2cc1Cc1ccccc1)N1CCN(c2ccc(F)cc2)CC1 (stereo not given)")
20
>>> reported_result("O=[N+]([O-])c1ccc2nc(Oc3ccc(F)cc3C(O)Cn3ccnc3)c(Cc3ccccc3)cc2c1 (stereo not given)")
58

Just for reference, ChEMBL document CHEMBL1152944 is where these values come from.
